System under test: human glucagon receptor (human) (UniProt P47871)
Sequence (P47871 26-477): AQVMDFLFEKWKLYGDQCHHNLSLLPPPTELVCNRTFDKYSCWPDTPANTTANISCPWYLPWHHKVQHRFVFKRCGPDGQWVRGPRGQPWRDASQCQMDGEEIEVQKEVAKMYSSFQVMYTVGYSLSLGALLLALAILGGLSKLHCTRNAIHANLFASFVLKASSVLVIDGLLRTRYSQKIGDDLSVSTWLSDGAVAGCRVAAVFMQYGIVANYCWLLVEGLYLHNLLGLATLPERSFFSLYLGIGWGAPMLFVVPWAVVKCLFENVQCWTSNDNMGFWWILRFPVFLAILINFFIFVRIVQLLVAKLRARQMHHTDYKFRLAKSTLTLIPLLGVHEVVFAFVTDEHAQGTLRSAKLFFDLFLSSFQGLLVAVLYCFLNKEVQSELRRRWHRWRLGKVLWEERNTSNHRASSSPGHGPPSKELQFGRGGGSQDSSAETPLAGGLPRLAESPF
Test: cell-based or functional assay
Starred links: 1 amine or outer side, 2 acyl side, 3 side chain; linkers in the order of their positions; H or OH if unused. Non-standard residues stand in square brackets, D forms with d. Groups on a side chain read outwards from the residue. No end group written: not given here. *: point of attachment. C20 diacid = O=C(O)CCCCCCCCCCCCCCCCCCC(=O)*; Phe(4-CN) = N#Cc1ccc(C[C@H](N)C(=O)O)cc1; αMePhe(2-F) = C[C@](N)(Cc1ccccc1F)C(=O)O; γGlu = O=C(O)[C@H](CCC(=O)[*:2])N[*:1]; NMeY = CN[C@@H](Cc1ccc(O)cc1)C(=O)O; αMeF = C[C@](N)(Cc1ccccc1)C(=O)O; αMeL = CC(C)C[C@](C)(N)C(=O)O; AEEA = NCCOCCOCC(=O)O; Aib = CC(C)(N)C(=O)O
Label N if cAMP Rel EC50 (1% HSA) falls below 600 nM; label Y in every other case.

Consider the worked cases shown below.
{"Binder": "YXQGTXTSDXXIXLDXKAQXNFIEXLQEGGPSSGEPPPEGT (synthetic construct; SITE 2: note = 2-Aminoisobutyric Acid; SITE 6: note = alpha-methyl-2-fluoro-L-phenylalanine; SITE 10: note = 3-(4-Pyridyl)-L-alanine; SITE 11: note = alpha-methyl-L-serine; SITE 13: note = alpha-methyl-leucine; SITE 16: note = L-ornithine; SITE 17: note = Lysine is chemically mo) [Example 525]", "Assigned class": "N"}
{"Binder": "YXQGTFTSDYSKXLDKKAQXAFVQWLLEGGPSSGEPPPSEG (not fully specified; Aib, alpha-methyl-Leu, acylated Lys, C-terminal amide; synthetic construct; SITE 2: note = 2-Aminoisobutyric Acid; SITE 13: note = alpha-methyl-leucine; SITE 17: note = Lysine is chemically modified through conjugation of the epsilon-amino group of the Lysine side chain with (2-[2-(2-Amino-ethoxy)-ethoxy]-acetyl)-(gamma-Glu)-CO-(CH2) 18-CO2H; SITE 20: n) [Example 343]", "Assigned class": "N"}
{"Binder": "YXQGTXTSDXSILLDKKAQXAFIEXLEEGGPSSGAPPPSGSGE (synthetic construct; SITE 2: note = 2-Aminoisobutyric Acid; SITE 6: note = alpha-methyl-2-fluoro-L-phenylalanine; SITE 10: note = 3-(4-Pyridyl)-L-alanine; SITE 17: note = Lysine is chemically modified through conjugation of the epsilon-amino group of the Lysine side chain with (gamma-Glu)2-CO-(CH2)1) [Example 666]", "Assigned class": "N"}
{"Binder": "YXQGTXTSDXSIXLDKKAQXXFIEYLAEGGPSSGEPPPEGSEE (synthetic construct; SITE 2: note = 2-Aminoisobutyric Acid; SITE 6: note = alpha-methyl-2-fluoro-L-phenylalanine; SITE 10: note = 3-(4-Pyridyl)-L-alanine; SITE 13: note = alpha-methyl-leucine; SITE 17: note = Lysine is chemically modified through conjugation of the epsilon-amino group of the Lysine) [Example 650]", "Assigned class": "N"}
{"Binder": "YXQGTFTSDXSQXLDKKAQXAFIEYLIEXGPSSGAPPPSGSE (Aib, 4Pal, Me4Pal, alpha-methyl-Leu, lipidated Lys, amide; synthetic construct; SITE 2: note = 2-Aminoisobutyric Acid; SITE 10: note = 3-(4-Pyridyl)-L-alanine; SITE 13: note = alpha-methyl-leucine; SITE 17: note = Lysine is chemically modified through conjugation of the epsilon-amino group of the Lysine side chain with D-Glutamic acid-(gamma-Glu)-D-Glutamic) [Example 927]", "Assigned class": "Y"}
{"Binder": "HXQGTXTSDYSILLDKKAAXAFIEYLIEAGPSSGEPPPSEG (not fully specified; non-natural residues, acylated Lys, C-terminal amide; synthetic construct; SITE 2: note = 2-Aminoisobutyric Acid; SITE 6: note = alpha-methyl-2-fluoro-L-phenylalanine; SITE 17: note = Lysine is chemically modified through conjugation of the epsilon-amino group of the Lysine side chain with (2-[2-(2-Amino-ethoxy)-ethoxy]-acetyl)-(gamma-Glu)-CO-(CH2) 18-) [Example 298]", "Assigned class": "Y"}
{"Binder": "YXQGTXTSDXXIXLDXKAQXNFIEXLQEGGPSSGEPPPEGTGE (synthetic construct; SITE 2: note = 2-Aminoisobutyric Acid; SITE 6: note = alpha-methyl-2-fluoro-L-phenylalanine; SITE 10: note = 3-(4-Pyridyl)-L-alanine; SITE 11: note = alpha-methyl-L-serine; SITE 13: note = alpha-methyl-leucine; SITE 16: note = L-ornithine; SITE 17: note = Lysine is chemically mo) [Example 527]", "Assigned class": "N"}
{"Binder": "YXQGTXTSDXSIXLDKKAQXXFIEYLQEGGPSSGEPPPEGSEE (synthetic construct; SITE 2: note = 2-Aminoisobutyric Acid; SITE 6: note = alpha-methyl-2-fluoro-L-phenylalanine; SITE 10: note = 3-(4-Pyridyl)-L-alanine; SITE 13: note = alpha-methyl-leucine; SITE 17: note = Lysine is chemically modified through conjugation of the epsilon-amino group of the Lysine) [Example 653]", "Assigned class": "N"}
{"Binder": "Y[Aib]QGT[αMePhe(2-F)]TSD[Phe(4-CN)]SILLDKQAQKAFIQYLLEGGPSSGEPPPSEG-NH2 (not fully specified (residue 20)) [Example 341]", "Assigned class": "Y"}
{"Binder": "YXQGTXTSDXXIXLDXKAAXEFIEXLIEGGPSSGAPPPSGEE (synthetic construct; SITE 2: note = 2-Aminoisobutyric Acid; SITE 6: note = alpha-methyl-2-fluoro-L-phenylalanine; SITE 10: note = 3-(4-Pyridyl)-L-alanine; SITE 11: note = alpha-methyl-L-serine; SITE 13: note = alpha-methyl-leucine; SITE 16: note = L-ornithine; SITE 17: note = Lysine is chemically mo) [Example 703]", "Assigned class": "N"}

Identify whether the reported cAMP Rel EC50 (1% HSA) of the following binder is 600 nM or greater: Y[Aib]QGTFTSDYSI[αMeL]LDKIAAK([AEEA-AEEA-γGlu-C20 diacid])QFVEWLLA[Aib]GPSSGEPPPSEG-NH2 [Example 324]
Y

Same question, Y[Aib]QGTFTSDYSI[αMeL]LDKQAAK([AEEA-AEEA-γGlu-C20 diacid])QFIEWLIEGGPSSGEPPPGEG-NH2 [Example 318] this time
Y

Same question, [NMeY][Aib]QGT[αMeF]TSDYSILLDKQAAKAFVQWLIAGGPSSGEPPPSEG-NH2 (not fully specified (residue 20)) [Example 301] this time
Y

Same question, YXQGTFTSDXSQXLDXKAQXAFIEYLLAGGPSSGAPPPSGSEE (non-natural residues, lipidated Lys, C-terminal amide; synthetic construct; SITE 2: note = 2-Aminoisobutyric Acid; SITE 10: note = 3-(4-Pyridyl)-L-alanine; SITE 13: note = alpha-methyl-leucine; SITE 16: note = L-ornithine; SITE 17: note = Lysine is chemically modified through conjugation of the epsilon-amino group of the Lysine side chain with (Glu)-(ga)) [Example 1057] this time
Y

Same question, YXQGTXTSDXSIXLDXKAQXXFIEXLIEGGPSSGEPPPEGT (synthetic construct; SITE 2: note = 2-Aminoisobutyric Acid; SITE 6: note = alpha-methyl-2-fluoro-L-phenylalanine; SITE 10: note = 3-(4-Pyridyl)-L-alanine; SITE 13: note = alpha-methyl-leucine; SITE 16: note = L-ornithine; SITE 17: note = Lysine is chemically modified through conjugation of the epsil) [Example 505] this time
N

Same question, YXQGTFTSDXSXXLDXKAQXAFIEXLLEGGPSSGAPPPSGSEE (Aib, 4Pal, Orn, αMeL, αMeY; lipidated Lys; C-terminal amide; synthetic construct; SITE 2: note = 2-Aminoisobutyric Acid; SITE 10: note = 3-(4-Pyridyl)-L-alanine; SITE 12: note = L-ornithine; SITE 13: note = alpha-methyl-leucine; SITE 16: note = L-ornithine; SITE 17: note = Lysine is chemically modified through conjugation of the epsilon-amino group of the Lys) [Example 1065] this time
Y

Same question, YXQGTXTSDXXIXLDXKAAXEFIEXLIEGGPSSGEPPPSGS (synthetic construct; SITE 2: note = 2-Aminoisobutyric Acid; SITE 6: note = alpha-methyl-2-fluoro-L-phenylalanine; SITE 10: note = 3-(4-Pyridyl)-L-alanine; SITE 11: note = alpha-methyl-L-serine; SITE 13: note = alpha-methyl-leucine; SITE 16: note = L-ornithine; SITE 17: note = Lysine is chemically mo) [Example 707] this time
N

Values from patent US20240270821A1
